Protocol description: Mouse liver microsome assay
Assay type: in vitro ADME
Test settings: 1 μM in mouse liver microsomes; read-out: t ½
Measurement name: half-life at 1 μM

Return reported half-life at 1 μM values for all items listed beneath this line.
1. Cc1cc(O)c(=O)c(O)cc1-c1cccc2ccccc12 [Compound 146]
2. Cc1cc(O)c(=O)c(O)cc1-c1ccc2ccccc2c1 [Compound 147]
3. CC(=O)c1cc(O)c(=O)c(O)cc1C [Compound 110]

Reply:
1: > 2 h; 2: > 2 h; 3: > 2 h

---

For each entry below, report its ER value.
Protocol description: Mouse liver microsome assay
Type: in vitro ADME
Test settings: extraction ratio, 1 μM in mouse liver microsomes

Answered cases to consult:
[
  {
    "Compound": "CC(=O)c1cc(O)c(=O)c(O)cc1C [Compound 110]",
    "Measurement name": "ER",
    "Measured": 0.22
  },
  {
    "Compound": "Cc1cc(O)c(=O)c(O)cc1-c1cccc2ccccc12 [Compound 146]",
    "Measurement name": "ER",
    "Measured": "<0.1"
  }
]

# next compound below
Record Cc1cc(O)c(=O)c(O)cc1-c1ccc2ccccc2c1 [Compound 147] , field ER: <0.1

---

Protocol description: Cytotoxicity reported with the HBV assay (Table 4)
Format: cell-based
Test settings: human, hepatoma cells; read-out: CC50 (HBV assay table)
Measurement name: CC50 at 24 h (µM)
Answers are plain numbers, in µM.

Worked set:
[
  {
    "Structure string": "Cc1cc(O)c(=O)c(O)cc1C(=O)c1ccc(-c2ccccc2)cc1",
    "CC50 at 24 h (µM)": 21
  },
  {
    "Structure string": "Cc1cc(O)c(=O)c(O)cc1C(=O)C1CCCCC1",
    "CC50 at 24 h (µM)": 24
  }
]

Dear reader, for each entry below, please note its CC50 at 24 h.
1. Cc1cc(O)c(=O)c(O)cc1-c1cccc(-c2ccc3ccccc3c2)c1
2. COCc1cc(O)c(=O)c(O)c(C(=O)OC)c1C(=O)OC
3. Cc1cc(O)c(=O)c(O)cc1C(=O)c1cccc(-c2cccc3ccccc23)c1
4. O=c1c(O)ccc(-c2ccncc2)cc1O
5. Cc1cc(O)c(=O)c(O)cc1C(=O)c1ccccc1

Reply:
55
81
32
32
31

Hello, I would appreciate it if you could give CC50 at 24 h for each entry below.
1. Cc1cc(O)c(=O)c(O)cc1C(=O)CC1CCCCC1
2. Cc1cc(O)c(=O)c(O)cc1C(=O)c1ccc(-c2ccc3ccccc3c2)cc1

Reply:
22
28

---

Protocol description: Cytotoxicity reported with the HBV assay (Table 4)
Type: cell-based
Test settings: human, hepatoma cells; read-out: CC50 (HBV assay table)
Provide the reported CC50 at 24 h of each item.

Reference set (2 entries):
[
  {
    "Compound": "O=c1c(O)ccc(Br)cc1O [Compound 261]",
    "CC50 at 24 h": "> 100 µM"
  },
  {
    "Compound": "O=c1c(O)ccccc1O [Compound 172]",
    "CC50 at 24 h": "> 100 µM"
  }
]

Give CC50 at 24 h for each listed item.
1. COC(=O)c1cc(O)c(=O)c(O)cc1C [Compound 274]
2. COC(=O)c1c(C)cc(OC)c(=O)c(O)c1OC [Compound 269]

Reply:
> 100 µM
> 100 µM
